Tested on: NCI-H510 multicellular tumor spheroid growth, % test/control
Test: Anticancer human tumor NCI-H510 cell line growth inhibition [Asc];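 further: spheroids exposed to agents for 7 days; 100% = DMSO vehicle control wells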
Details: second compound 1 µM; first compound 10 µM; hits give low values
PROPERTY: viability, T/C (%)

molecule="C=CC(=O)N1CCN(c2nc(=O)n(-c3c(C)ccnc3C(C)C)c3nc(-c4c(O)cccc4F)c(F)cc23)C(C)C1 (centres undefined) + Cc1c(S(C)(=O)=O)c(-c2cc(F)cc(N3CCN(c4ccc(NS(=O)(=O)c5ccc(NC(CCN6CCC(C(=O)OCCCP(=O)(O)O)CC6)CSc6ccccc6)c(S(=O)(=O)C(F)(F)F)c5)cc4)CC3)c2)c(-c2ccc(Cl)cc2)n1C(C)C" reported_value=79.3
molecule="C=C(F)C(=O)N1CCN(c2nc(OCC3CCCN3C)nc3c2CCN(c2cccc4cccc(Cl)c24)C3)CC1CC#N (centres undefined) + Cc1c(S(C)(=O)=O)c(-c2cc(F)cc(N3CCN(c4ccc(NS(=O)(=O)c5ccc(NC(CCN6CCC(C(=O)OCCCP(=O)(O)O)CC6)CSc6ccccc6)c(S(=O)(=O)C(F)(F)F)c5)cc4)CC3)c2)c(-c2ccc(Cl)cc2)n1C(C)C" reported_value=0.11
molecule="O=C(c1cc(Cc2n[nH]c(=O)c3ccccc23)ccc1F)N1CCN(C(=O)C2CC2)CC1 + Cc1c(S(C)(=O)=O)c(-c2cc(F)cc(N3CCN(c4ccc(NS(=O)(=O)c5ccc(NC(CCN6CCC(C(=O)OCCCP(=O)(O)O)CC6)CSc6ccccc6)c(S(=O)(=O)C(F)(F)F)c5)cc4)CC3)c2)c(-c2ccc(Cl)cc2)n1C(C)C" reported_value=3.96
molecule="C#Cc1c(F)ccc2cc(O)cc(-c3ncc4c(N5CC6CCC(C5)N6)nc(OCC56CCCN5CC(F)C6)nc4c3F)c12 (centres undefined) + CNC(C)C(=O)NC1CN(S(=O)(=O)c2cccc(S(=O)(=O)N3CCC4CCC(C(=O)NC(c5ccccc5)c5ccccc5)N4C(=O)C(NC(=O)C(C)NC)C3)c2)CCC2CCC(C(=O)NC(c3ccccc3)c3ccccc3)N2C1=O" reported_value=114

* * *

Test system: NCI-H510 multicellular tumor spheroid growth, % test/control
Assay: Anticancer human tumor NCI-H510 cell line growth inhibition [Asc]; active = viability on the fitted dose curve at most 10% of control; inactive = the rest;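 further: spheroids exposed to agents for 7 days; 100% = DMSO vehicle control wells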
Conditions: second compound 0.03 µM; first compound 10 µM
Classes used: T for active, F for inactive

compound="C=CC(=O)N1CCN(c2nc(=O)n(-c3c(C)ccnc3C(C)C)c3nc(-c4c(O)cccc4F)c(F)cc23)C(C)C1 (centres undefined) + CCN1C(C(=O)NC23CCC(C(=O)O)(CC2)CC3)C(c2cccc(Cl)c2F)C2(C(=O)Nc3cc(Cl)ccc32)C12CCCCC2" assay_system="NCI-H510 multicellular tumor spheroid growth, % test/control" class=F
compound="C=C(F)C(=O)N1CCN(c2nc(OCC3CCCN3C)nc3c2CCN(c2cccc4cccc(Cl)c24)C3)CC1CC#N (centres undefined) + CCN1C(C(=O)NC23CCC(C(=O)O)(CC2)CC3)C(c2cccc(Cl)c2F)C2(C(=O)Nc3cc(Cl)ccc32)C12CCCCC2" assay_system="NCI-H510 multicellular tumor spheroid growth, % test/control" class=T
compound="C#Cc1c(F)ccc2cc(O)cc(-c3ncc4c(N5CC6CCC(C5)N6)nc(OCC56CCCN5CC(F)C6)nc4c3F)c12 (centres undefined) + CCN1C(C(=O)NC23CCC(C(=O)O)(CC2)CC3)C(c2cccc(Cl)c2F)C2(C(=O)Nc3cc(Cl)ccc32)C12CCCCC2" assay_system="NCI-H510 multicellular tumor spheroid growth, % test/control" class=F
compound="O=C(c1cc(Cc2n[nH]c(=O)c3ccccc23)ccc1F)N1CCN(C(=O)C2CC2)CC1 + CCN1C(C(=O)NC23CCC(C(=O)O)(CC2)CC3)C(c2cccc(Cl)c2F)C2(C(=O)Nc3cc(Cl)ccc32)C12CCCCC2" assay_system="NCI-H510 multicellular tumor spheroid growth, % test/control" class=F

Values from PubChem BioAssay AID1963438
